These entries and their values trace back to ChEMBL document CHEMBL1137197.

- TARGET_ENTITY: cGMP-specific 3',5'-cyclic phosphodiesterase (Homo sapiens)
- ASSAY_NOTES: Inhibition of human Phosphodiesterase 5 purified from MCF-7 cells
pIC50: −log10 of the molar value.
PROPERTY_MEASURED: pIC50

Below, each entry is followed by its recorded pIC50 result.
Cn1nc(-c2ccc(Cl)cc2)s/c1=N\c1cccc(CC(=O)O)c1 | 4.70
Cn1nc(-c2ccc(Cl)cc2)s/c1=N\c1cccc(C(=O)O)c1O | 5.29
Cn1nc(-c2ccc(Cl)cc2)s/c1=N\c1cccc(-c2nn[nH]n2)c1 | 5.15

(P) Cn1nc(-c2ccc(Cl)cc2)s/c1=N\c1ccc(F)cc1
(Q) Cn1nc(-c2ccc(Cl)cc2)s/c1=N\c1ccc(F)c(C(=O)O)c1
Ask: Return label of the item with the larger pIC50. Candidates: P , Q . Provide the label of your selected option as the answer.
Result: Q
